TEST DESCRIPTION: Acute toxicity in mouse
Design: species or system Mouse (ddy)
TEST PARAMETERS: in vivo, iv, mouse female, i.v., read-out: Acute toxicity LD 50
REPORTED METRIC: LD50

{"STRUCTURE SMILES STRING": "CCCCOC(=O)C(=O)Nc1cccc(-c2nnn[nH]2)c1", "MEASUREMENT": "1220 mg/kg"}

* * *

TEST DESCRIPTION: Acute toxicity in mouse
Set-up: species or system Mouse (ddy)
TEST PARAMETERS: in vivo, iv, mouse male, i.v., read-out: Acute toxicity LD 50
REPORTED METRIC: LD50

{"STRUCTURE SMILES STRING": "CCCCOC(=O)C(=O)Nc1cccc(-c2nnn[nH]2)c1", "REPORTED METRIC": "LD50", "MEASUREMENT": "1130 mg/kg"}
